Tested on: P. gingivalis ATCC 33277
Assay: Monospecies bacterial biofilm inhibition, static peg assay (anaerobic, 72 h)
Format: cell-based
Conditions: Porphyromonas gingivalis, ATCC33277; P. gingivalis ATCC 33277, 37°C; read-out: BIC50
pIC50: −log10 of the molar value.
Mark True for reported pIC50 of 5 or greater; mark False for anything smaller.

Ask: # check: pIC50 of Clc1ccc(-c2cnc(NC3CCCC3)[nH]2)cc1 is greater than or equal to 5
Result: True

Ask: # iterate: Brc1ccc(-c2cnc(NCCn3cc(C4CC4)nn3)[nH]2)cc1
Result: False

Ask: # iterate: CCCCNc1ncc(-c2ccc(Br)cc2)[nH]1
Result: True

Ask: # iterate: CC(C)CNc1ncc(-c2ccc(Cl)cc2)[nH]1
Result: True

Ask: # iterate: CCCCCCCCn1c(-c2ccc(Cl)cc2)cnc1N
Result: True
